Target Of Assay: Alpha-1A adrenergic receptor (Rattus norvegicus) (UniProt P43140)
Sequence (whole entry): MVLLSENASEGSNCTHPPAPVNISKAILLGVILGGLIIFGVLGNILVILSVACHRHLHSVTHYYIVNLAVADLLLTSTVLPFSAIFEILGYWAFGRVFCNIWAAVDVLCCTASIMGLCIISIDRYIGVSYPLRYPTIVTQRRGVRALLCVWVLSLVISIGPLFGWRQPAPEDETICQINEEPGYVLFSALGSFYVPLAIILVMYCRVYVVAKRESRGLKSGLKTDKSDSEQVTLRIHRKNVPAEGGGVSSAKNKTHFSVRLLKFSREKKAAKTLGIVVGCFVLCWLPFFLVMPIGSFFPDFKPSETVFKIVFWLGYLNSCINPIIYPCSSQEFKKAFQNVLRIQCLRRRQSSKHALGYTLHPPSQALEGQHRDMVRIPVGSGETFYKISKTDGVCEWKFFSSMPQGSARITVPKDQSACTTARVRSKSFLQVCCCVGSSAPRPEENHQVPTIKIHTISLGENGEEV
Assay Procedure: Antagonist activity at alpha1A adrenoceptor in Wistar rat prostatic vas deferens assessed as inhibition of (-)-noradrenalilne-induced contraction after 30 mins
Assay type: functional, tissue-based
Measured Quantity: pKb

Compound: COc1ccccc1N1CCN(CC2CCC(c3ccccc3)(c3ccccc3)C2=O)CC1 (centres undefined)
Target Of Assay: Alpha-1A adrenergic receptor (Rattus norvegicus) (UniProt P43140)
pKb: 6.28

Compound: COc1ccccc1OCCNCC1COC(c2ccccc2)(c2ccccc2)O1 (centres undefined)
Target Of Assay: Alpha-1A adrenergic receptor (Rattus norvegicus) (UniProt P43140)
pKb: 7.53

Compound: COc1ccccc1OCCNCC1CCC(c2ccccc2)(c2ccccc2)C1=O (centres undefined)
Target Of Assay: Alpha-1A adrenergic receptor (Rattus norvegicus) (UniProt P43140)
pKb: 6.39

Query :: So what pKb did O[C@@H]1[C@H](CNCCOc2ccccc2)CCC1(c1ccccc1)c1ccccc1 (relative stereo) get with Alpha-1A adrenergic receptor (Rattus norvegicus) (UniProt P43140)?
Result :: 5.23
